measuredOn: Estrogen receptor (Homo sapiens)
methodSummary: OT_ER_ERaERa_1440: Odyssey Thera (OT) 24-hour HEK293T Protein-Complementation Assay for Estrogen Receptor-alpha/-alpha Homodimer (AID 2283349);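 also: hits raise fluorescence above DMSO for agonists and antagonists alike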
Activity calls are given as the source filed them. The calls were made as follows: active = hit-call score of the fitted dose curve at least 0.9, where 1 is the maximum; inconclusive = response in the unintended direction; inactive = score below 0.9.
Would you mind answering with one of these outcomes? active, inactive

Observe how each entry below is paired with its result.
[[record]]
compound = "CCCCCCCC/C=C\\CCCCCCCC(=O)OCC(O)CO (stereo not given)"
classname = "inactive"

[[record]]
compound = "CCOC(=O)C1CC(=O)C(=C(O)C2CC2)C(=O)C1 (stereo not given)"
classname = "inactive"

[[record]]
compound = "CC(=O)CCC(C)C"
classname = "active"

[[record]]
compound = "CCOC(OCC)OCC"
classname = "inactive"


In: // return assay outcome for CCCCCCCCCCCCCC[P+](CCCC)(CCCC)CCCC
Out: inactive

====

methodSummary: ATG_E_Box_CIS: Attagene CIS-FACTORIAL HepG2 Assay for human Enhancer Box (E-box) (AID 2282936)
conditions: HepG2 E-box cis-reporter transcription, actives raise or lower the signal
Activity calls are given as the source filed them. How the source made its calls: active means hit-call score of the fitted dose curve at least 0.9, where 1 is the maximum; inactive means score below 0.9.
Would you mind answering with one of these outcomes? active, inactive

In: // return assay outcome for CN(C)C(C)(C)CO
Out: inactive

In: // return assay outcome for CCOC(=O)CCC(C)=O
Out: inactive

In: // return assay outcome for CCC(Cc1c(I)cc(I)c(N)c1I)C(=O)O (stereo not given)
Out: inactive

====

Read-out: Intercellular Adhesion Molecule 1 (ICAM1), ICAM1 (gene 3383)
methodSummary: BSK_BF4T_ICAM1: BioMAP Diversity Plus: BF4T Assay for Intercellular Adhesion Molecule 1 (ICAM1) Biomarker Activity (AID 2284260)
conditions: primary human bronchial epithelial cells with fibroblasts
Experimental: BSK_BF4T is a cell-based, multiplexed-readout assay that uses bronchial epithelial cells and dermal fibroblasts, a human vascular primary cell, with measurements taken at 24 hours after chemical dosing in a microplate: 96-well plate.BSK_BF4T_ICAM1 is an assay component measured in the BSK_BF4T assay. […] The levels of cell surface (or secreted, indicated by the prefix "s") biomarker endpoints were measured by ELISA. […] Plates were read after 6 h.
Activity calls are given as the source filed them. How the source made its calls: active means hit-call score of the fitted dose curve at least 0.9, where 1 is the maximum; inactive means score below 0.9.
measurementType: outcome

Completed entries (count: 4):
[[record]]
compoundsmiles = "NCC(F)(F)C(F)(F)C(F)(F)C(F)(F)C(F)(F)C(F)(F)C(F)(F)C(F)(F)F"
measurementtype = "outcome"
recordedvalue = "inactive"

[[record]]
compoundsmiles = "OC(O)C(F)(F)C(F)(F)F"
measurementtype = "outcome"
recordedvalue = "inactive"

[[record]]
compoundsmiles = "CO[Si](C)(CCC(F)(F)C(F)(F)C(F)(F)C(F)(F)C(F)(F)C(F)(F)F)OC"
measurementtype = "outcome"
recordedvalue = "inactive"

[[record]]
compoundsmiles = "NC(=O)C(F)(F)C(F)(F)C(F)(F)C(F)(F)C(F)(F)C(F)(F)C(F)(F)F"
measurementtype = "outcome"
recordedvalue = "inactive"


In: Tell us which outcome value is on record for NC(=O)C(F)(F)C(F)(F)C(F)(F)C(F)F
Out: inactive

====

methodSummary: ATG_GATA_CIS: Attagene CIS-FACTORIAL HepG2 Assay for human GATA Binding Protein (AID 2282944)
conditions: HepG2 GATA cis-element reporter, Attagene multiplex mRNA; actives raise or lower the signal
Activity calls are given as the source filed them. Rule for the calls: active = hit-call score of the fitted dose curve at least 0.9, where 1 is the maximum; inactive = score below 0.9.
measurementType: AC50

Completed entries (count: 4):
[[record]]
compound = "O=C=NCc1cccc(CN=C=O)c1"
measurementtype = "AC50"
recordedvalue = "inactive"

[[record]]
compound = "CO[Si](CCCOCC1CO1)(OC)OC (configuration not stated)"
measurementtype = "AC50"
recordedvalue = "inactive"

[[record]]
compound = "CCCCOC(=O)[C@H](C)O"
measurementtype = "AC50"
recordedvalue = "inactive"

[[record]]
compound = "O=S(=O)(OCC(F)(F)F)C(F)(F)C(F)(F)C(F)(F)C(F)(F)F"
measurementtype = "AC50"
recordedvalue = "inactive"


Batch request: AC50 for each of the following compounds.
1. NC(=O)C(F)(F)C(F)(F)C(F)(F)C(F)F
2. CCc1cccc(C)c1N(C(=O)C(=O)O)C(C)COC (configuration not stated)
3. O=c1[nH]cccc1O
4. OCC(F)(F)C(F)(F)C(F)(F)C(F)(F)C(F)(F)C(F)(F)CO
5. CSc1ccc(O)cc1C
6. CCc1cc(Cc2cc(CC)c(N)c(CC)c2)cc(CC)c1N

Out:
["inactive", "inactive", "inactive", "inactive", "inactive", "inactive"]

Batch request: AC50 for each of the following compounds.
1. CCn1c2ccccc2c2ccccc21
2. OCCCCC(F)(F)C(F)(F)C(F)(F)C(F)(F)F
3. CCCCCCCCCCCCC[N+](C)(C)Cc1ccccc1
4. CC(O)C#CC(C)O (configuration not stated)
5. CCOC(C=C(C)CCC=C(C)C)OCC
6. O=C(c1ccccc1)c1ccc(Cl)cc1
7. CC(C)(C)c1cc(CCC(=O)NCCCCCCNC(=O)CCc2cc(C(C)(C)C)c(O)c(C(C)(C)C)c2)cc(C(C)(C)C)c1O
8. Nc1c(Br)cc([N+](=O)[O-])cc1Br

Out:
1. inactive
2. inactive
3. inactive
4. 69.2 µM (active)
5. inactive
6. inactive
7. inactive
8. inactive

====

methodSummary: ATG_BRE_CIS: Attagene CIS-FACTORIAL HepG2 Assay for human Bone Morphogenetic Protein (BMP) Response Element (BRE) (AID 2282933)
conditions: HepG2 BMP response element reporter, Attagene transcription factor profiling; actives raise or lower the signal
Experimental: ATG_CIS is a cell-based, multiplexed-readout assay that uses HepG2, a human liver cell line, with measurements taken at 24 hours after chemical dosing in a 24-well plate.ATG_BRE_CIS is one of 52 assay component(s) measured or calculated from the ATG_CIS assay. […] This assay endpoint, ATG_BRE_CIS, was analyzed with bidirectional fitting relative to DMSO as the negative control and baseline of activity. […]
Activity calls are given as the source filed them. Rule for the calls: active = hit-call score of the fitted dose curve at least 0.9, where 1 is the maximum; inactive = score below 0.9.
Would you mind answering with one of these outcomes? True (active), False (inactive)

[[record]]
molecule = "CC(C)C(=O)OCc1ccccc1"
classname = "False"

[[record]]
molecule = "O=C1C=CC(=O)N1c1ccc(Cc2ccc(N3C(=O)C=CC3=O)cc2)cc1"
classname = "True"

[[record]]
molecule = "CCN=c1cc2oc3cc(NCC)c(C)cc3c(-c3ccccc3C(=O)OCC)c-2cc1C"
classname = "False"

[[record]]
molecule = "CCN(CC)c1ccc(C=O)c(O)c1"
classname = "False"

[[record]]
molecule = "Cc1cc(=O)[nH]c(C(C)C)n1"
classname = "False"

[[record]]
molecule = "CN1CN(C)CN(C)C1"
classname = "False"


In: // return assay outcome for O=C(O)CCC(F)(F)C(F)(F)C(F)(F)C(F)(F)C(F)(F)C(F)(F)C(F)(F)F
Out: False

====

methodSummary: ATG_CRE_CIS: Attagene CIS-FACTORIAL HepG2 Assay for human cAMP Responsive Element (CRE) binding protein 3 (AID 2282926)
conditions: HepG2 CRE cis-reporter, Attagene multiplexed mRNA; actives raise or lower the signal
Active and inactive are the calls of the source. How the source made its calls: active means hit-call score of the fitted dose curve at least 0.9, where 1 is the maximum; inactive means score below 0.9.
Would you mind answering with one of these outcomes? YES = active, NO = inactive

Observe how each entry below is paired with its result.
[[record]]
molecule = "OCC1CCCO1 (centres undefined)"
classname = "NO"

[[record]]
molecule = "CCCCCCCCCc1ccc(OCCO)cc1"
classname = "YES"

[[record]]
molecule = "CN(C(=O)C(F)(F)C(F)(F)C(F)(F)F)[Si](C)(C)C"
classname = "NO"

[[record]]
molecule = "Cc1cc(C)c(O)c(C(C)(C)C)c1"
classname = "NO"

[[record]]
molecule = "O=S(=O)(O)CCC(F)(F)C(F)(F)C(F)(F)C(F)(F)C(F)(F)C(F)(F)C(F)(F)C(F)(F)F"
classname = "NO"

[[record]]
molecule = "CC(O)C#CC(C)O (centres undefined)"
classname = "NO"


Below: the item to evaluate.
In: // return assay outcome for OCCCc1cccnc1
Out: NO

====

methodSummary: CCTE_Padilla_ZF_Score.General: CCTE's 144 Hour Post-fertilization zebrafish Assay Score for General Malformation, Padilla Lab (AID 2284411)
Calls of active or inactive are those of the source. The calls were made as follows: active = hit-call score of the fitted dose curve at least 0.9, where 1 is the maximum; inactive = score below 0.9.
Would you mind answering with one of these outcomes? T (active), F (inactive)

In: // return assay outcome for OCC(F)(F)C(F)(F)C(F)(F)C(F)(F)C(F)(F)C(F)(F)CO
Out: T

In: // return assay outcome for O=S(=O)(OCC(F)(F)F)C(F)(F)C(F)(F)C(F)(F)C(F)(F)F
Out: F

In: // return assay outcome for O=C(O)C(F)(F)C(F)(F)C(F)(F)C(=O)O
Out: F

In: // return assay outcome for O=C(O)C(F)(F)OC(F)(F)C(F)(F)OC(F)(F)C(F)(F)OC(F)(F)F
Out: F

In: // return assay outcome for O=C(c1ccccc1)c1ccc(O)cc1O
Out: F

In: // return assay outcome for OCCCCC(F)(F)C(F)(F)C(F)(F)C(F)(F)F
Out: T

In: // return assay outcome for CCN(CC)c1ccc(C=O)cc1
Out: F

In: // return assay outcome for C[Si](Cl)(Cl)CCC(F)(F)C(F)(F)C(F)(F)C(F)(F)C(F)(F)C(F)(F)F
Out: F

In: // return assay outcome for NCC(F)(F)C(F)(F)C(F)(F)C(F)(F)C(F)(F)C(F)(F)F
Out: T

In: // return assay outcome for O=C(F)C1(F)C(F)(F)C(F)(F)C(F)(F)C(F)(F)C1(F)F
Out: F

In: // return assay outcome for OCCCC(F)(F)C(F)(F)C(F)(F)C(F)(F)C(F)(F)C(F)(F)C(F)(F)C(F)(F)F
Out: F

In: // return assay outcome for OCC(F)(F)C(F)(F)C(F)(F)C(F)(F)C(F)(F)C(F)(F)C(F)(F)C(F)(F)CO
Out: T

In: // return assay outcome for O=C(Cl)C(F)(F)C(F)(F)C(F)(F)C(F)(F)C(F)(F)C(F)(F)F
Out: T

In: // return assay outcome for OCC(O)CC(F)(F)C(F)(F)C(F)(F)C(F)(F)C(F)(F)C(F)(F)C(F)(F)C(F)(F)F (configuration not stated)
Out: T

In: // return assay outcome for FC(F)(F)C(F)(F)C(F)(F)C(F)(F)C(F)(F)C(F)(F)C(F)(F)CCI
Out: F

In: // return assay outcome for NC(=O)C(F)(F)C(F)(F)C(F)(F)C(F)(F)C(F)(F)C(F)(F)C(F)(F)F
Out: F

In: // return assay outcome for NC(=O)C(F)(F)C(F)(F)C(F)(F)C(F)(F)C(N)=O
Out: F

Origin of the recorded values: PubChem BioAssay (EPA / NIEHS)
